Recorded ELISA Assay Ratio β1/β7 values for a group of compounds are listed next.
molecular target: recombinant integrin α4β1 (Homo sapiens, UniProt P05556+P13612); construct: purchased R&D Systems 5397-A3-050; assay: Integrin α4β1—VCAM-1 competition ELISA; format: binding; settings: ratio of ELISA IC50s, α4β1 over α4β7
Sequence (P13612 34-970 limits assumed): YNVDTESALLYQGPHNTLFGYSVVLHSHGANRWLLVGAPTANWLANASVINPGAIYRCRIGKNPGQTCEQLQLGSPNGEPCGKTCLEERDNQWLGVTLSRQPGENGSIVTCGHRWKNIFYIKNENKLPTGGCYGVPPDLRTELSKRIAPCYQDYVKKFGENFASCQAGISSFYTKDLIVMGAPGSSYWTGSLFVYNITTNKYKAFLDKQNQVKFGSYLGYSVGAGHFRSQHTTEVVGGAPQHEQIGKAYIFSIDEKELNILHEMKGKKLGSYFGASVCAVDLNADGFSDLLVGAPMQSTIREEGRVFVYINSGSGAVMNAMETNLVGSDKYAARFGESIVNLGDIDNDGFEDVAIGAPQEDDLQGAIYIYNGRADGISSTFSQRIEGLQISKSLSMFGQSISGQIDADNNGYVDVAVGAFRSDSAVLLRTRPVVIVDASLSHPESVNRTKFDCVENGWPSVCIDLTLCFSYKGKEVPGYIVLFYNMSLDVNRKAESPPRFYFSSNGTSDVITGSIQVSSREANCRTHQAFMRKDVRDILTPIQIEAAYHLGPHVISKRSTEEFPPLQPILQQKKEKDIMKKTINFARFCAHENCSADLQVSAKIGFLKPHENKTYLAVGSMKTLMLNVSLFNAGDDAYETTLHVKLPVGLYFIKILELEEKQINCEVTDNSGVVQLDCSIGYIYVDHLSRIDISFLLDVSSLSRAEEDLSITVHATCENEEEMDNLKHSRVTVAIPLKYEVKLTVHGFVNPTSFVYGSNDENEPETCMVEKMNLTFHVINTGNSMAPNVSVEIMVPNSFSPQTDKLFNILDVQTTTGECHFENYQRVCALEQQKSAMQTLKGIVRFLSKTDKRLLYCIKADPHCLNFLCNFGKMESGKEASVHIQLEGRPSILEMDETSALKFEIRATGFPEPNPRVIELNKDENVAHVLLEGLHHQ
Sequence (P05556 21-728 limits assumed): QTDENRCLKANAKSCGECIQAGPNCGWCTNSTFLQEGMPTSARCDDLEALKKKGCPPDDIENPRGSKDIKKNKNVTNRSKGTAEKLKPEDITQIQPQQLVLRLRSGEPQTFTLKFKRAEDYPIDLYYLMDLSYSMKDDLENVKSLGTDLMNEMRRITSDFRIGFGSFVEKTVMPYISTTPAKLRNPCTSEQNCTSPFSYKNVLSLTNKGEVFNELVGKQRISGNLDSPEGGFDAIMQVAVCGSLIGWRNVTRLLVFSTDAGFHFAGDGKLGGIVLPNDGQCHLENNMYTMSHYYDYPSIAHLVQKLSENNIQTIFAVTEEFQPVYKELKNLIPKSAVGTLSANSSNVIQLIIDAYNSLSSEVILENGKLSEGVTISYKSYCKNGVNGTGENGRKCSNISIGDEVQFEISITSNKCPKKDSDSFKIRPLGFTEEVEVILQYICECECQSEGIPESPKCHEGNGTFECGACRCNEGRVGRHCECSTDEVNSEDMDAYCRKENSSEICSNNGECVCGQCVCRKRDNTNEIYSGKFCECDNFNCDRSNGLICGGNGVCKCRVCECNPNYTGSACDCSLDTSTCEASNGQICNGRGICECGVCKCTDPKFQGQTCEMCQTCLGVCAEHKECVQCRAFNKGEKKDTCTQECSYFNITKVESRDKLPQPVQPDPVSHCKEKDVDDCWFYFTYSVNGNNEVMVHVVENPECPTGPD

| compound_structure_string | ELISA Assay Ratio β1/β7 |
| --- | --- |
| CC(C)C[C@@H]1NC(=O)c2ccc(-c3ccc(N4CCN(Cc5ccc(CN6CCN(c7ccc(-c8ccc9cc8CNC(=O)[C@@H]8CCCN8[C@H](C(=O)NC(C)(C)C)[C@H](C)NC(=O)[C@H]([C@@H](C)O)NC(=O)[C@H](CC(=O)O)NC(=O)[C@H](CC(C)C)NC9=O)cc7)CC6)cc5)CC4)cc3)c(c2)CNC(=O)[C@@H]2CCCN2[C@H](C(=O)NC(C)(C)C)[C@H](C)NC(=O)[C@H]([C@@H](C)O)NC(=O)[C@H](CC(=O)O)NC1=O | 0.8 |
| CC(C)C[C@@H]1NC(=O)c2ccc(-c3ccc(N4CCN(C(=O)CC[C@H](N)C(=O)N5CCN(c6ccc(-c7ccc8cc7CNC(=O)[C@@H]7CCCN7[C@H](C(=O)NC(C)(C)C)[C@H](C)NC(=O)[C@H]([C@@H](C)O)NC(=O)[C@H](CC(=O)O)NC(=O)[C@H](CC(C)C)NC8=O)cc6)CC5)CC4)cc3)c(c2)CNC(=O)[C@@H]2CCCN2[C@H](C(=O)NC(C)(C)C)[C@H](C)NC(=O)[C@H]([C@@H](C)O)NC(=O)[C@H](CC(=O)O)NC1=O | 0.2 |
